Test: Solution stability test (residual ratio and generation of active form in buffers of pH 2.0 to 9.0)
Type: physicochemical
Details: pH2.0 buffer, 25° C., 25 umol/L, 6 hr
Structures can show the parent of a compound that is named as a salt.
Residual ratio values by entry
Please state the value followed by its unit.

- NCCCNC(=O)Oc1c(OC(=O)NCCCN)c(-c2ccccc2)c2c(c1-c1ccccc1)OCO2: 100%
- CN1CC[C@H](c2c(OC(=O)N(C)CCN)cc(O)c3c(=O)cc(-c4ccccc4Cl)oc23)[C@H](O)C1: 100%
- CC(=O)c1cc2c(OC(=O)NCCNCC(=O)O)c3ccsc3c(OC(=O)NCCNCC(=O)O)c2o1 [Example 1, dihydrochloride]: 103%
- Cc1cc(OC(=O)NCCNCC(=O)O)c2ccccc2c1OC(=O)NCCNCC(=O)O [Example 2, dihydrochloride]: 99.8%

Consider CC(=O)c1cc2c(O)c3c(O)cccc3c(OC(=O)NCCCN)c2o1 [Reference Example 9, hydrochloride] . Its measured Residual ratio is 92.9%

For reference, reported Residual ratio for C[C@H]1COc2c1c(OC(=O)NCCNCC(=O)O)c(OC(=O)NCCNCC(=O)O)c1c3c(ccc21)C(C)(C)CCC3 [Example 12, dihydrochloride] stands at 98.9%
